biological target: recombinant human MEK 1 (MAPKK) and recombinant human ERK2 (MAPK); assay: Mitogen Activated Protein Kinase (MAPK) assay, two component coupled MEK 1 / ERK2; conditions: separate entries for the same compound = evaluated more than one time
The molecules listed here are annotated with their IC50.
measured-property: IC50

# chemical-structure, measured-property, assay-value
data = [
    ("COc1cc2c(Nc3ccc(C)c(O)c3)c(C#N)cnc2c(OC)c1OC", "IC50", "80 µM"),
    ("COc1cc2ncc(C#N)c(Nc3cccnc3)c2cc1OC", "IC50", "> 100 µM"),
    ("CC#CC(=O)Nc1ccc2ncc(C#N)c(Nc3ccc(F)c(Cl)c3)c2c1", "IC50", "40 µM"),
    ("N#Cc1cnc2ccc([N+](=O)[O-])cc2c1Nc1cccc(C(F)(F)F)c1", "IC50", "> 100 µM"),
    ("COc1cc2c(Nc3cc(O)c(Cl)cc3F)c(C#N)cnc2c(OC)c1OC", "IC50", "> 100 µM"),
    ("COc1cc2ncc(C#N)c(Nc3cccc(Br)c3)c2cc1OCCCN1CCOCC1", "IC50", "> 100 µM"),
    ("COc1cc2ncc(C#N)c(Nc3cccc(C#N)c3)c2cc1OC", "IC50", "> 100 µM"),
    ("CCN(CC)CC=CC(=O)Nc1ccc2ncc(C#N)c(Nc3ccc(F)c(Br)c3)c2c1", "IC50", "8 µM"),
    ("COc1cc2ncc(C#N)c(Nc3ccc(O)c(Cl)c3)c2cc1OC", "IC50", "15 µM"),
    ("CN(C)CC#CC(=O)Nc1ccc2ncc(C#N)c(Nc3ccc(F)c(Br)c3)c2c1", "IC50", "35 µM"),
    ("COc1ccc(Nc2c(C#N)cnc3cc(OC)c(OC)cc23)cc1OC", "IC50", "30 µM"),
    ("COc1ccc2c(Nc3cccc(Br)c3)c(C#N)cnc2c1", "IC50", "> 100 µM"),
    ("CN(C)c1ccc(Nc2c(C#N)cnc3ccc(N)cc23)cc1", "IC50", "> 100 µM"),
    ("COc1ccc2c(Nc3ccc(C)c(O)c3)c(C#N)cnc2c1", "IC50", "2.5 µM"),
    ("C=CC(=O)Nc1cc2c(Nc3cccc(Br)c3)c(C#N)cnc2cc1OC", "IC50", "> 100 µM"),
    ("COc1cc2ncc(C#N)c(Nc3cccc(CCl)c3)c2cc1OC", "IC50", "15 µM"),
    ("COc1cc2ncc(C#N)c(Nc3ccc(F)c(Cl)c3)c2cc1OCCCN1CCOCC1", "IC50", "> 100 µM"),
    ("COc1cc2ncc(C#N)c(Nc3cccc(Br)c3)c2cc1N", "IC50", "25 µM"),
    ("CCOc1cc2ncc(C#N)c(Nc3cccc(Br)c3)c2cc1OC", "IC50", "> 100 µM"),
]

----------
target: recombinant human MEK 1 (MAPKK) and recombinant human ERK2 (MAPK); assay: Mitogen Activated Protein Kinase (MAPK) assay, two component coupled MEK 1 / ERK2; details: separate entries for the same compound = evaluated more than one time;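 also: MEK 1-activated ERK2 phosphorylates MBP or Myc peptide with 33P-ATP, filter capture and scintillation counting, inhibitor preincubated with ERK2 30 min at 0 °C, inhibition relative to uninhibited control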
Structures can show the parent of a compound that is named as a salt.
Labelling field: enter Fulfilled if recorded IC50 is less than 20 µM. Enter Not fulfilled if it equals or exceeds that cut-off.

# molecule, cat
rows = [
    ("COc1ccc(OC)c2c(Nc3cccc(N(C)C)c3)c(C#N)cnc12 [Example 242]", "Fulfilled"),
    ("COc1cc2ncc(C#N)c(Nc3ccc(F)c(Cl)c3)c2cc1NC(=O)C=CCN1CCOCC1 [Example 205]", "Not fulfilled"),
    ("COc1cc2ncc(C#N)c(Nc3ccc(C)c(O)c3)c2cc1OC [Example 229]", "Fulfilled"),
    ("C=C(C)C(=O)Nc1ccc2ncc(C#N)c(Nc3cccc(Br)c3)c2c1 [Example 383]", "Not fulfilled"),
    ("N#Cc1cnc2ccc([N+](=O)[O-])cc2c1Nc1cccc(Br)c1 [Example 13]", "Not fulfilled"),
    ("COc1cc2ncc(C#N)c(Nc3cccc(Br)c3)c2cc1[N+](=O)[O-] [Example 6]", "Not fulfilled"),
    ("CC#CC(=O)Nc1cc2c(Nc3cccc(Br)c3)c(C#N)cnc2cc1OC [Example 8]", "Not fulfilled"),
    ("COc1cc2c(Nc3cccc(Br)c3)c(C#N)cnc2c(OC)c1OC [Example 241]", "Not fulfilled"),
    ("C=CC(=O)Nc1ccc2ncc(C#N)c(Nc3cccc(C(C)C)c3)c2c1 [Example 355]", "Not fulfilled"),
    ("C=CC(=O)Nc1ccc2ncc(C#N)c(Nc3ccc(F)c(Cl)c3)c2c1 [Example 144]", "Not fulfilled"),
    ("COc1cc2ncc(C#N)c(Nc3ccc(F)c(Br)c3)c2cc1NC(=O)C=CCN(C)C [Example 208]", "Fulfilled"),
    ("COc1cc2ncc(C#N)c(Nc3cccc(N=[N+]=[N-])c3)c2cc1OC [Example 359]", "Not fulfilled"),
    ("N#Cc1cccc(Nc2c(C#N)cnc3ccc(N)cc23)c1 [Example 162]", "Not fulfilled"),
    ("COc1cc2ncc(C#N)c(Nc3ccccc3CCO)c2cc1OC [Example 301]", "Fulfilled"),
    ("CN(C)c1ccc2ncc(C#N)c(Nc3cccc(Br)c3)c2c1 [Example 395, Hydrochloride]", "Fulfilled"),
    ("COc1cc2ncc(C#N)c(Nc3cccc(Br)c3)c2cc1NC(=O)C=CCN1CCOCC1 [Example 200]", "Not fulfilled"),
    ("CCOc1cc2ncc(C#N)c(Nc3cccc(C(C)=O)c3)c2cc1OCC [Example 257]", "Not fulfilled"),
]

----------
target: Kinase insert Domain containing Receptor (KDR: the catalytic domain of the VEGF receptor) (Homo sapiens); construct: KDR: the catalytic domain of the VEGF receptor; experiment: Inhibition of Kinase insert Domain containing Receptor (KDR); format: biochemical
pIC50: −log10 of the molar value.

# chemical-structure, pIC50
measured = [
    ("COc1cc2ncc(C#N)c(Nc3ccc(Cl)cc3F)c2cc1OCCCN1CCOCC1", 4.67),
    ("COc1cc2ncc(C#N)c(Nc3ccc(C)c(O)c3)c2cc1OCCCN1CCOCC1", 4.75),
]

----------
biological target: Kinase insert Domain containing Receptor (KDR: the catalytic domain of the VEGF receptor) (Homo sapiens, UniProt P35968); construct: KDR: the catalytic domain of the VEGF receptor; experiment: Inhibition of Kinase insert Domain containing Receptor (KDR); assay type: biochemical; conditions: pH 7.2; radioactive format; read-out: KDR IC50 (converted);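 also: KDR phosphorylating a Glu:Tyr 4:1 copolymer with P32- or P33-labelled ATP, Mg++ and vanadate, read as acid-insoluble radiolabel, compared with compound-free reaction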
Sequence (P35968 834-1162 limits assumed): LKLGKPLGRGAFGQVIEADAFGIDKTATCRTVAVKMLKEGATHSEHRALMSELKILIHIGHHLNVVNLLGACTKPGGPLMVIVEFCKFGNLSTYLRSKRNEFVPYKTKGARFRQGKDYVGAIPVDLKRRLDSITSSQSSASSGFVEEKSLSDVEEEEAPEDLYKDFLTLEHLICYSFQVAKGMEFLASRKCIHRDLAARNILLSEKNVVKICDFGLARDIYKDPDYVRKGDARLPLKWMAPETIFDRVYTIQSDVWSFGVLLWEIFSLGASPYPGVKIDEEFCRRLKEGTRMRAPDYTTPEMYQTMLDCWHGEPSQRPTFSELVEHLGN
Threshold check on IC50: strictly below 7 µM is T; on or above 7 µM is F.

# chemical-structure, cat
rows = [
    ("COc1cc2ncc(C#N)c(Nc3c(C)cccc3O)c2cc1OC", "F"),
    ("COc1cc2ncc(C#N)c(Nc3cc(O)c(Cl)cc3F)c2cc1OC", "T"),
    ("COc1cc2c(Nc3cccc(Br)c3)c(C#N)cnc2c(OC)c1OC", "F"),
    ("COc1cc2ncc(C#N)c(Nc3cc(Br)c(O)c(Br)c3)c2cc1OC", "F"),
    ("COc1cccc2c(Nc3ccc(Cl)cc3F)c(C#N)cnc12", "F"),
    ("COc1cc2ncc(C#N)c(Nc3ccc(F)c(Br)c3)c2cc1NC(=O)C=CCN(C)C", "F"),
    ("CCOc1cc2ncc(C#N)c(Nc3ccc(C)c(O)c3)c2cc1OC", "T"),
    ("COc1ccc(Nc2c(C#N)cnc3c(OC)cccc23)cc1O", "F"),
    ("COc1cc2c(Nc3ccc(Cl)cc3F)c(C#N)cnc2c(OC)c1OC", "F"),
    ("COc1cc2c(Nc3cc(O)c(Cl)cc3F)c(C#N)cnc2cc1OCCCN1CCOCC1", "T"),
    ("COc1cc2ncc(C#N)c(Nc3cccc(SC)c3)c2cc1OC", "F"),
    ("COc1cc2c(Nc3cccc(N(C)C)c3)c(C#N)cnc2c(OC)c1OC", "F"),
    ("CCOc1cc2ncc(C#N)c(Nc3cccc(Br)c3)c2cc1NC(=O)C=CCN1CCOCC1", "F"),
    ("CCOc1cc2c(Nc3ccc(C)c(O)c3)c(C#N)cnc2cc1OC", "T"),
    ("COc1ccc(OC)c2c(Nc3cccc(N(C)C)c3)c(C#N)cnc12", "F"),
    ("COc1ccc(OC)c2c(Nc3cc(O)c(Cl)cc3F)c(C#N)cnc12", "F"),
    ("COc1cc2ncc(C#N)c(Nc3ccccc3SC)c2cc1OC", "F"),
    ("COc1cc2ncc(C#N)c(Nc3cc(Cl)ccc3O)c2cc1OC", "F"),
    ("CN(C)CC=CC(=O)Nc1ccc2ncc(C#N)c(Nc3ccc(F)c(Cl)c3)c2c1", "F"),
    ("COc1ccc(OC)c2c(Nc3ccc(C)c(O)c3)c(C#N)cnc12", "F"),
    ("COc1cc2c(Nc3ccc(C)c(O)c3)c(C#N)cnc2c(OC)c1OC", "F"),
]
